Where these numbers come from: patent US20250368734A1

MEASURED_TARGET: T1, human GPRC5D (human, UniProt Q9NZD1 1-345)
T1 construct: whole, on cells; also called hGPRC5D; G-protein coupled receptor family C group 5 member D
T1 sequence (Q9NZD1 whole entry): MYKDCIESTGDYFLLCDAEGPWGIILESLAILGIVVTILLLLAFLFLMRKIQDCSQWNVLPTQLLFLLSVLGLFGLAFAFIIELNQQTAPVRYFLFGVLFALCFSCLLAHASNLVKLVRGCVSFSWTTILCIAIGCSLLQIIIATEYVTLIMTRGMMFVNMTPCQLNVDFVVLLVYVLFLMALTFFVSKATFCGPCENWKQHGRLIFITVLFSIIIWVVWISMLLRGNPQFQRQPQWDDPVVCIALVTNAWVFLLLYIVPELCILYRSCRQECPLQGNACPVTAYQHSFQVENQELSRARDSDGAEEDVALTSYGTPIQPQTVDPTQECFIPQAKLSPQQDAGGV
PROCEDURE_DETAILS: FACS, HEK293T-hGPRC5D cells
# MFI per record follows
Reply with just the number.

Below, each entry is followed by its recorded MFI result.
BINDER	MFI
90G6H3 (antibody, V domains shown, Mouse monoclonal antibody from hybridoma subclone) VH: QAYLQQSGAELVRSGASVKMSCKASGYTFTSYIMHWVKQTPGQGLEWIGYIYPGNGGTNYNQKFKDKATLSADTSSSTAYMQINSLTSEDSAVYFCARWGLRQGFAYWGQGTLVSVSA VL: DIVMTQSQKFMSTSVGDRVSVTCKASQNVGGNVAWYQQKPGQSPKALIYSTSYRNSGVPDRFTGSGSGTDFTLTISNVQSEDLAEYFCQQYNSYPFTFGSGTKLEIR	4940
36A3G8 (antibody, V domains shown, Mouse monoclonal antibody from hybridoma subclone) VH: QVQLQQSGAELARPGASVKMSCKASGYTFTTYTMHWIKQRPGQDLEWIGFINPSSGYTKYNQNFKDKATLTADKSSTTAYMQLNSLTSEDSAVYYCASPYGNIYFDVWGTGTTVTVSS VL: DIVMTQSQKFMSTAVGDRVSITCKASQNVGTAVAWYQQKPGQSPKLLIYSASNRYTGVPDRFTGSGSGTDFTLTISNMQSEDLADYFCQQYSSYPLTFGAGTKLELK	31800

Alright, here's another binder for you.
Query block: Request the reported MFI associated with 96C9E7 (antibody, V domains shown, Mouse monoclonal antibody from hybridoma subclone) VH: EVQLQQSGPELVKPGASVKMSCKASGYTFTYYILHWVKQKPGQGLEWIGYFNPYNDGNKFNERFRGKATLTSDKSSSTAYMELNSLTSEDSAVYFCARGGVRRYFDVWGAGTTVTVSS VL: DIQMTQSPSSLSASLGERVSLTCRASQDIGSNLNWLQQEPDGTIKRLISATFSLDSGVPKRFSGSRSGSDYSLTISSLESEDFVNYYCLQYASFPYTFGGGTKLEIK
Result block: 680
